The reported numbers originate from PubChem BioAssay (NCI).

Test system: CCRF-CEM leukemia
Assay: NCI-60 one-dose screen, 48 h (100 = growth as untreated, 0 = no growth, -100 = all killed)
Details: 10 µM unless noted
Compounds without any hit were thinned out: in the full panel of roughly 83,000, 20% have a hit.
Respond with 1 for growth values of 30% and above, 0 for values below.

compound | class
c1ccc(-c2n(Cc3ccc4ccccc4n3)cc[n+]2Cc2ccc3ccccc3c2)cc1 | 0
OCCNc1nc(NCCO)nc(Nc2ccc(C3=NN(c4ccc(Cl)cc4)C(c4ccc(Cl)cc4)C3)cc2)n1 (stereo not given) | 0
CCOCc1cc(C(C)(C)C)ccc1O | 1
Cc1cc(NC(=O)CNc2nc(Oc3ccc(F)cc3)nc(-c3ccc(F)cc3)n2)ccc1Cl | 1
COc1ccc2nc(-c3ccc(Cl)cc3)cc(-c3nnc(SCC(=O)Nc4ccc(/C(C)=N\O)cc4)o3)c2c1 | 1
